Target: the molecule itself
Assay: native gel or EMSA; purified recombinant proteins, non-reducing, non-denaturing electrophoresis (SDS- and DTT-free loading buffer), immunoblot with anti-laforin or anti-HIS antibody; self-association, monomer and dimer bands
MEASUREMENT_NAME: binding result

laforin C266S, recombinant, no epitope tag (enzyme, human, UniProt O95278 1-331, looked up, laforin, human, 331 amino acids (EPM2A), catalytic cysteine mutant C266S; source: E. coli BL21 (RIL), pET21b+, purified (amylose resin)) MRFRFGVVVPPAVAGARPELLVVGSRPELGRWEPRGAVRLRPAGTAAGDGALALQEPGLWLGEVELAAEEAAQDGAEPGRVDTFWYKFLKREPGGELSWEGNGPHHDRCCTYNENNLVDGVYCLPIGHWIEATGHTNEMKHTTDFYFNIAGHQAMHYSRILPNIWLGSCPRQVEHVTIKLKHELGITAVMNFQTEWDIVQNSSGCNRYPEPMTPDTMIKLYREEGLAYIWMPTPDMSTEGRVQMLPQAVCLLHALLEKGHIVYVHSNAGVGRSTAAVCGWLQYVMGWNLRKVQYFLMAKRPAVYIDEEALARAQEDFFQKFGKVRSSVCSL = binds
laforin C123S, recombinant, no epitope tag (enzyme, human, UniProt O95278 1-331, looked up, laforin, human, 331 amino acids (EPM2A), mutant C123S; source: E. coli BL21 (RIL), pET21b+, purified (amylose resin)) MRFRFGVVVPPAVAGARPELLVVGSRPELGRWEPRGAVRLRPAGTAAGDGALALQEPGLWLGEVELAAEEAAQDGAEPGRVDTFWYKFLKREPGGELSWEGNGPHHDRCCTYNENNLVDGVYSLPIGHWIEATGHTNEMKHTTDFYFNIAGHQAMHYSRILPNIWLGSCPRQVEHVTIKLKHELGITAVMNFQTEWDIVQNSSGCNRYPEPMTPDTMIKLYREEGLAYIWMPTPDMSTEGRVQMLPQAVCLLHALLEKGHIVYVHCNAGVGRSTAAVCGWLQYVMGWNLRKVQYFLMAKRPAVYIDEEALARAQEDFFQKFGKVRSSVCSL = binds
laforin C205S, recombinant, no epitope tag (enzyme, human, UniProt O95278 1-331, looked up, laforin, human, 331 amino acids (EPM2A), mutant C205S; source: E. coli BL21 (RIL), pET21b+, purified (amylose resin)) MRFRFGVVVPPAVAGARPELLVVGSRPELGRWEPRGAVRLRPAGTAAGDGALALQEPGLWLGEVELAAEEAAQDGAEPGRVDTFWYKFLKREPGGELSWEGNGPHHDRCCTYNENNLVDGVYCLPIGHWIEATGHTNEMKHTTDFYFNIAGHQAMHYSRILPNIWLGSCPRQVEHVTIKLKHELGITAVMNFQTEWDIVQNSSGSNRYPEPMTPDTMIKLYREEGLAYIWMPTPDMSTEGRVQMLPQAVCLLHALLEKGHIVYVHCNAGVGRSTAAVCGWLQYVMGWNLRKVQYFLMAKRPAVYIDEEALARAQEDFFQKFGKVRSSVCSL = binds

src = paper PMC3724922
